Experiment: chemical genetic growth profiling, strain panel (AID 1159580);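 also: tested at 20 µM; growth read once vehicle control cultures reached saturation at 30 °C; 1 = growth at the plate median or of vehicle wells; lower values mean less growth of the strain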
Details: S. cerevisiae deletion strains, growth OD, locus YOL012C, strain htz1
The campaign covered roughly 5,500 compounds. About 2,000 (36%) were called active. Not shown: some 18% with an inconclusive outcome. This is one part of the list.
Measure name: normalized growth

Compound: CC(C)Cn1c(=O)n(C)c(=O)c2[nH]cnc21
Measure name: normalized growth
Observed measurement: 2.1
--
Compound: COc1cc(O)ccc1C(C)=O
Measure name: normalized growth
Observed measurement: 1.92
--
Compound: COc1ccc(-c2c(OC)c3c(OC)c4c(cc3oc2=O)OC(C)(C)C=C4)cc1
Measure name: normalized growth
Observed measurement: 1.03
--
Compound: CC(C)N=C(N)N=C(N)Nc1ccc(Cl)cc1
Measure name: normalized growth
Observed measurement: 1.92
--
Compound: CCC[C@@H]1C[C@@H](C(=O)N[C@H]([C@H]2O[C@H](SC)[C@H](O)[C@@H](O)[C@H]2O)[C@H](C)O)N(C)C1
Measure name: normalized growth
Observed measurement: 0.745
--
Compound: COc1ccc([C@@H](C)C(=O)c2ccc(O)cc2O)cc1
Measure name: normalized growth
Observed measurement: 1.31
--
Compound: COc1cc([C@@H]2c3cc4c(cc3[C@H](O)[C@H]3COC(=O)[C@H]23)OCO4)cc(OC)c1OC
Measure name: normalized growth
Observed measurement: 0.833
--
Compound: COc1ccc(-c2c(O)c3c(OC)c4c(cc3oc2=O)OC(C)(C)C=C4)cc1
Measure name: normalized growth
Observed measurement: 0.954
--
Compound: COc1cc(OC)c2c(OC)c(-c3ccc4c(c3)OCO4)c(=O)oc2c1
Measure name: normalized growth
Observed measurement: 0.711
--
Compound: CC(=O)O[C@@H]1C2CC[C@@H]3C1(C[C@@H](O)[C@@]1(O)[C@@H](C[C@H](O)C1(C)C)[C@]3(C)O)C[C@@]2(C)O (some centres undefined)
Measure name: normalized growth
Observed measurement: 1.28
--
Compound: CN1CCCCC1c1ccc(-c2cccnc2)nc1 (centres undefined)
Measure name: normalized growth
Observed measurement: 1.24
--
Compound: O=C(Nc1ccc([N+](=O)[O-])cc1Cl)c1cc(Cl)ccc1O
Measure name: normalized growth
Observed measurement: 0.729
--
Compound: CC(=O)OC1CCC23CC1(C)CCC2C(C)(C)CC3OC(C)=O (centres undefined)
Measure name: normalized growth
Observed measurement: 0.724
--
Compound: CC(=O)OCC1=C(C(=O)O)N2C(=O)[C@@H](NC(=O)CSc3ccncc3)[C@H]2SC1
Measure name: normalized growth
Observed measurement: 0.881
